# system: RET (V804M) kinase (Homo sapiens, UniProt P07949, V804M)
# Sequence (P07949 29-1114 V804M): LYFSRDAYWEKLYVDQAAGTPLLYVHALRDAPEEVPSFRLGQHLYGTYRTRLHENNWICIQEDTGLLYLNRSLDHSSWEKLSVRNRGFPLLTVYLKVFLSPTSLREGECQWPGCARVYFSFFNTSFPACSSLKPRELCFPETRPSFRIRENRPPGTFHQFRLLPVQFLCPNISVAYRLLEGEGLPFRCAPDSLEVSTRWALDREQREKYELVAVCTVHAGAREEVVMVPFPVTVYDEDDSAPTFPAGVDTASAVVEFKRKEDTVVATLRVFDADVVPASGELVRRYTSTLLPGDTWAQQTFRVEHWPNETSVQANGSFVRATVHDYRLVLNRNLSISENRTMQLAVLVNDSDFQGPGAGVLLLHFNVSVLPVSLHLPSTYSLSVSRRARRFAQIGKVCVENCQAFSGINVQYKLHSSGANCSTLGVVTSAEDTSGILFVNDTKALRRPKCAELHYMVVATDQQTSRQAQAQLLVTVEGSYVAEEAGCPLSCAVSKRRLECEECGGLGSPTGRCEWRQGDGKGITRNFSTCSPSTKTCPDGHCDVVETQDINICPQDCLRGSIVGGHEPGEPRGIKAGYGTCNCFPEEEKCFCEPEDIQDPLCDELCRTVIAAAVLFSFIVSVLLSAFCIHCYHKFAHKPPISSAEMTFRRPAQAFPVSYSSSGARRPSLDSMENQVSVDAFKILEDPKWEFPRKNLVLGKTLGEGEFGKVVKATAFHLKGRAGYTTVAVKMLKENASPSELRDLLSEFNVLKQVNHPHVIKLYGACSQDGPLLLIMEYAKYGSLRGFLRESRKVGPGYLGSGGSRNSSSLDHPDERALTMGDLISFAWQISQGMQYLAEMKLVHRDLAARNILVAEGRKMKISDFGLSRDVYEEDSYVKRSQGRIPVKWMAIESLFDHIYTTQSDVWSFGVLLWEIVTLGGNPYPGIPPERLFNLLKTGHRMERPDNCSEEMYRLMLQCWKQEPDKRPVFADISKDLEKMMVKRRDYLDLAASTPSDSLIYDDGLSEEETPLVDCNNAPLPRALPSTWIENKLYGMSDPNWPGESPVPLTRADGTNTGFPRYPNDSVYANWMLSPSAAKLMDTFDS
# method.description: In-vitro enzyme activity test, RET (V804M) kinase
# condition.parameters: ATP 30 μM; 10 concentrations 3 μM to 0.152 nM
pIC50: −log10 of the molar value. Where a name gives a salt, the structure may show the parent alone.
observation.type: pIC50

Consider the reported pIC50 for these compounds:
INSERT INTO results (compound, observation_type, value_observed) VALUES
  ('COc1ccc(CN2C3CC2CN(c2ccc(-c4cc(C5=CCNCC5)cn5ncc(C#N)c45)cn2)C3)cn1 [Trifluoroacetate of compound 32]', 'pIC50', 8.50),
  ('CCN1CC=C(c2cc(-c3ccc(N4CCN(Cc5c(F)cccc5F)CC4)nc3)c3c(C#N)cnn3c2)CC1 [Trifluoroacetate of compound 27]', 'pIC50', 7.47),
  ('COc1ccc(CN2C3CC2CN(c2ccc(-c4cc(C5=CCOCC5)cn5ncc(C#N)c45)cn2)C3)cn1 [Trifluoroacetate of compound 33]', 'pIC50', 8.13),
  ('COc1ccc(CN2C3CC2CN(c2cnc(-c4cc(N5CCCC5)cn5ncc(C#N)c45)cn2)C3)cn1 [Triftuoroacetate of compound 64]', 'pIC50', 8.57),
  ('N#Cc1cnn2cc(C3=CCNCC3)cc(-c3ccc(N4CCN(Cc5c(F)cccc5F)CC4)nc3)c12 [Tfifluoroacetate of compound 25]', 'pIC50', 7.96);

A: CN1CC=C(c2cc(-c3ccc(N4CCN(Cc5c(F)cccc5F)CC4)nc3)c3c(C#N)cnn3c2)C1 [Trifluoroacetate of compound 24]
B: N#Cc1cnn2cc(N3CCOCC3)cc(-c3ccc(N4CC5CC(C4)N5Cc4cnc5c(c4)OCO5)nc3)c12 [Trifluoroacetate of compound 13]
C: COc1ccc(CN2C3CC2CN(c2cnc(-c4cc(N5CC[C@@H](F)C5)cn5ncc(C#N)c45)cn2)C3)cn1 [Trifluoroacetate of compound 67]
D: C[C@@H](C(=O)N1CCN(c2ccc(-c3cc(N4CCOCC4)cn4ncc(C#N)c34)cn2)CC1)c1ccccc1 [Hydrochloride of compound 4]
E: COc1c(F)cc(CN2C3CC2CN(c2ccc(-c4cc(N5CCOCC5)cn5ncc(C#N)c45)cn2)C3)cc1F [Trifluoroacetate of compound 11]
Problem: Sequence the entries by pIC50, beginning with the highest number. Returns: the labels listed in the requested order.
Solution: E, C, B, A, D
(E: 9.21, C: 8.80, B: 8.46, A: 8.07, D: 7.64)

====

# method.description: Pharmacokinetic evaluation in mice (IV and PO)
# Type: in vivo
# condition.parameters: mouse, plasma; intravenous injection (IV) 0.2 mg/kg, female Balb/c mice; read-out: T1/2 (half-life of elimination) (converted)
observation.type: half-life (h)
Could you give me the number in h? Just the number is fine.

Problem: Recorded half-life for COc1ccc(CN2C3CC2CN(c2ccc(-c4cc(N5CCC(F)(F)C5)cn5ncc(C#N)c45)cn2)C3)cn1 [Trifluoroacetate of compound 69] , please?
Solution: 3.6

====

# system: UniProt:P07949
observation.type: IC50 (nM)

Consider the reported IC50 for these compounds:
INSERT INTO results (compound, observation_type, uom, value_observed) VALUES
  ('COc1ccc(CN2C3CC2CN(c2ccc(-c4cc(C5=CCC(C)(O)CC5)cn5ncc(C#N)c45)cn2)C3)cn1 (centres unmarked) [Compound 42]', 'IC50', 'nM', 1.13),
  ('COc1ncc(CN2C3CC2CN(c2ccc(-c4cc(N5CCOCC5)cn5ncc(C#N)c45)cn2)C3)cc1F [Trifluoroacetate of compound 15]', 'IC50', 'nM', 1.21),
  ('COc1ccc(CN2C3CC2CN(c2ccc(-c4cc(N5CC[C@@H](F)C5)cn5ncc(C#N)c45)cn2)C3)cn1 [Trifluoroacetate of compound 68]', 'IC50', 'nM', 1.53),
  ('COc1ccc(CN2C3CC2CN(c2ccc(-c4cc(C5=CCOCC5)cn5ncc(C#N)c45)cn2)C3)cn1 [Trifluoroacetate of compound 33]', 'IC50', 'nM', 1.47),
  ('COc1ccc(CN2C3CC2CN(c2ccc(-c4cc(C5=CCNC(C)C5)cn5ncc(C#N)c45)cn2)C3)cn1 (centres unmarked) [Compound 41]', 'IC50', 'nM', 3.09);

P: COc1ccc(CN2C3CC2CN(c2ccc(-c4cc(N5CC[C@@H](OC)C5)cn5ncc(C#N)c45)cn2)C3)cn1 [compound 79]
Q: COc1ccc(CN2C3CC2CN(c2ccc(-c4cc(N5CC[C@H](O)C5)cn5ncc(C#N)c45)cn2)C3)cn1 [Compound 71]
Problem: So which one has the bigger IC50 here, P or Q ? Respond with the label that goes with your answer.
Solution: P
(P: 1.39 nM, Q: 0.59 nM)
